// reported PBM binding z-score per item
Tested on: PPARg homodimer (NR concentration 180 nM)
Assay: PBM binding z-score (relative to random genomic background probes); higher = stronger binding; sequences stand for … in GC…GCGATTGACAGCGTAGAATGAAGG

{"columns": ["Sequence Code", "Assayed System", "PBM binding z-score"],
 "data": [
  ["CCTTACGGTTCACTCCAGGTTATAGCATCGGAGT", "PPARg homodimer (NR concentration 180 nM)", 1.62],
  ["TCTAGTTGGTCAAAGGTCACACAATCGAAATGCG", "PPARg homodimer (NR concentration 180 nM)", 4.36],
  ["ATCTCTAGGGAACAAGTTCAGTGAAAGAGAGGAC", "PPARg homodimer (NR concentration 180 nM)", 0.773],
  ["CGACCAAGGTCAATGCTAGGTCAGTGAAAGCATT", "PPARg homodimer (NR concentration 180 nM)", 4.22],
  ["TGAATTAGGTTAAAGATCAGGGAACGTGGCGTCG", "PPARg homodimer (NR concentration 180 nM)", 1.58],
  ["CCTCGGAGGACAACAGGAGCTCAGAGCTGCCAGA", "PPARg homodimer (NR concentration 180 nM)", -0.744],
  ["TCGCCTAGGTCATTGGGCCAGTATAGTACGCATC", "PPARg homodimer (NR concentration 180 nM)", 1.52],
  ["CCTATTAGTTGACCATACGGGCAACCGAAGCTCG", "PPARg homodimer (NR concentration 180 nM)", 1.39],
  ["CGAACTAGGTCATTGACATGACAGTGAATAGTAA", "PPARg homodimer (NR concentration 180 nM)", 1.93],
  ["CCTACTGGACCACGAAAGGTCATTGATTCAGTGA", "PPARg homodimer (NR concentration 180 nM)", 3.78],
  ["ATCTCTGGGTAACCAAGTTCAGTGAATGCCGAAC", "PPARg homodimer (NR concentration 180 nM)", 0.00227],
  ["CGAACTAGGTCATCCAGGACAGTGATTACATTGA", "PPARg homodimer (NR concentration 180 nM)", 1.15],
  ["CTCCCAAGGTGAACAAGGTCGTTGATTACTATTC", "PPARg homodimer (NR concentration 180 nM)", 0.903],
  ["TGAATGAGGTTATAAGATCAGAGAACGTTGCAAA", "PPARg homodimer (NR concentration 180 nM)", 0.196],
  ["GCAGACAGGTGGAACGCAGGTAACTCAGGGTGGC", "PPARg homodimer (NR concentration 180 nM)", -0.728],
  ["GCATATAGGTAATACAAGGTGAAAGACCGATTGT", "PPARg homodimer (NR concentration 180 nM)", 0.0891],
  ["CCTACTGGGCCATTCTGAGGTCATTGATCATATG", "PPARg homodimer (NR concentration 180 nM)", 1.5],
  ["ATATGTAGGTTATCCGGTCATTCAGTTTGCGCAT", "PPARg homodimer (NR concentration 180 nM)", 0.982],
  ["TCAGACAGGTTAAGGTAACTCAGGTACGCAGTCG", "PPARg homodimer (NR concentration 180 nM)", 1.1],
  ["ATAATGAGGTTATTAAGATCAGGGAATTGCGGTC", "PPARg homodimer (NR concentration 180 nM)", 1.12],
  ["TCTTGTAGATCAGCTGGTTAAGAAAGCTGGCCAA", "PPARg homodimer (NR concentration 180 nM)", -0.903],
  ["CCTTACGGGTCACTGACAGGTTACAGCATTTGGA", "PPARg homodimer (NR concentration 180 nM)", 2.85],
  ["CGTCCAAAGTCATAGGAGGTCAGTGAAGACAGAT", "PPARg homodimer (NR concentration 180 nM)", 1.59],
  ["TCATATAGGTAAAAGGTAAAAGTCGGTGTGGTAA", "PPARg homodimer (NR concentration 180 nM)", 1.81],
  ["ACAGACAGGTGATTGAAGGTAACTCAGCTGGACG", "PPARg homodimer (NR concentration 180 nM)", 0.449],
  ["CCTCGGAGGGCAGAAGGTCAGAGCTGTCCGCTTT", "PPARg homodimer (NR concentration 180 nM)", 0.905]
]}

---

System: VDR:RXRa (NR concentration 270 nM, RXRa partner concentration 90 nM)
Test: PBM binding z-score (relative to random genomic background probes); higher = stronger binding; sequences stand for … in GC…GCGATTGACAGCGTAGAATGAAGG
// reported PBM binding z-score per item

{"columns": ["Sequence Code", "PBM binding z-score"],
 "data": [
  ["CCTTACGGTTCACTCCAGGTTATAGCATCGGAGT", 3.4],
  ["GCATATAGGTAATACAAGGTGGAAGTCCGATTGT", -0.118],
  ["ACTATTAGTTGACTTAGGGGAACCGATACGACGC", 0.378],
  ["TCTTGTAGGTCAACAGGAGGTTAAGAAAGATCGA", 3.79],
  ["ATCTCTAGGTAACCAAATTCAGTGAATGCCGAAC", 0.296],
  ["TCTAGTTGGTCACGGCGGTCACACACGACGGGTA", 1.82],
  ["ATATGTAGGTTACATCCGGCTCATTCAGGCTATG", 0.412],
  ["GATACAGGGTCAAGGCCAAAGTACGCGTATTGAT", 4.44],
  ["GTACCAAGGTGAATAGGTCGTTCATGAGTAGGCG", 1.06],
  ["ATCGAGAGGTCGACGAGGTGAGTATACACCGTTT", 4.87],
  ["CCTACTGGGCCATCAGGTCTTTGATATCAACGTT", -0.244],
  ["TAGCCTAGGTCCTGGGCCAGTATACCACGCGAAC", -0.679],
  ["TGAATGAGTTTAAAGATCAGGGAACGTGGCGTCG", 1.09],
  ["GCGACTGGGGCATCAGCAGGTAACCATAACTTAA", -0.245],
  ["AGAATGAGGTTATACGTAGATCAGGGAGGAAAGT", 1.33],
  ["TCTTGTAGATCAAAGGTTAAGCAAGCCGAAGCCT", 1.65],
  ["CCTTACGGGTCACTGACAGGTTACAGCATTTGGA", 3.76],
  ["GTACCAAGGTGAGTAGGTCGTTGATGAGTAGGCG", 0.177],
  ["CTTACAGGGTCAGCTAGGCCAGAGTAGGGACGGC", 3.88],
  ["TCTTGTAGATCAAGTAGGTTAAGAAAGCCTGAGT", 0.698],
  ["TTACCAAGGTGAAGGTCGTTTATCCCTCTGTAGA", 1.66],
  ["ACTAGTTGGTCAGCTGAGGTTACACACAATTCGG", 1.59],
  ["CCTACTGGGCCATTCGGAGGTCATTGATCATATG", 3.03],
  ["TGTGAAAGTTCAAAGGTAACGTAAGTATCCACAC", 4.88],
  ["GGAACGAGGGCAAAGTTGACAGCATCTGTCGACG", 1.6],
  ["ATAACGAGGGCAATGAGTTGATAGCACGGGTGGC", 4.89]
]}

---

Tested on: PPARg DBDmut IVT, anti-PPARg (DBD mutation: PPARg1 K132A/R137A, NR concentration 270 nM)
Experiment: PBM binding z-score (relative to random genomic background probes); higher = stronger binding; sequences stand for … in GC…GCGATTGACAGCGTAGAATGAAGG

{"columns": ["Sequence Code", "PBM binding z-score"],
 "data": [
  ["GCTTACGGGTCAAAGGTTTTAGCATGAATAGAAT", 1.07],
  ["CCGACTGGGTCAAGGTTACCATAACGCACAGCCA", -0.0986],
  ["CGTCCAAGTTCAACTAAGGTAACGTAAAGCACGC", 0.451],
  ["ATCGAAAGGTCGAGGTGAGTATTGAGAAAGGGAA", 0.451],
  ["TCATATAGGTAAAAGTTGAAAGTCGGTGTGGTAA", 1.75],
  ["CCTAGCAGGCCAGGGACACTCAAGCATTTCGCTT", -1.15],
  ["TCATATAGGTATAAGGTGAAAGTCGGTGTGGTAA", 0.854],
  ["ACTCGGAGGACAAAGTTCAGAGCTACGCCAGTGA", -0.633],
  ["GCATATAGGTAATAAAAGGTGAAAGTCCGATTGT", 0.676],
  ["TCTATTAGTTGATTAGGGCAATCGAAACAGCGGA", 0.869],
  ["GCGACTGGGGCAAAGCAGGTTACAATAAGGTTGG", -0.774],
  ["GCTGCTAGGTCAACTGACGGTCAGCTAAAGCTCG", -0.0795],
  ["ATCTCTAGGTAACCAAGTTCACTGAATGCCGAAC", 1.47],
  ["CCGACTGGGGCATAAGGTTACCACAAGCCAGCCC", -1.03],
  ["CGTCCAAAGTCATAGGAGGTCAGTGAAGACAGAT", 0.213],
  ["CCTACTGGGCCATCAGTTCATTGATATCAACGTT", 0.651],
  ["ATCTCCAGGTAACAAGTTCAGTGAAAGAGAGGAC", 1.37],
  ["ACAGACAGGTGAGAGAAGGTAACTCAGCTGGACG", -0.367],
  ["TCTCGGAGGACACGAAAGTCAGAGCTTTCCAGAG", -0.594],
  ["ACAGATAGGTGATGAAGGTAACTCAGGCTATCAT", 0.000268],
  ["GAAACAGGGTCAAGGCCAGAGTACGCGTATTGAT", 1.01],
  ["CCTGCTAGGTCAATGGTCAGTTAAAGCAGCTCGC", -0.609],
  ["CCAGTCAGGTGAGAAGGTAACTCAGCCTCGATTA", -1.63],
  ["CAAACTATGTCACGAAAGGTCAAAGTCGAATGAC", 0.957],
  ["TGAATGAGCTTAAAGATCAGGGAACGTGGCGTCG", -0.43],
  ["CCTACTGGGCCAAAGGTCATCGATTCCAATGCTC", -0.332],
  ["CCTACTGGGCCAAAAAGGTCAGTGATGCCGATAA", -1.18],
  ["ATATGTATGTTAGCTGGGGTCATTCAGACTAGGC", 1.76],
  ["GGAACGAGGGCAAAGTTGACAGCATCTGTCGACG", 0.308],
  ["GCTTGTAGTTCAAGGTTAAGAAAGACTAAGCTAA", 0.576],
  ["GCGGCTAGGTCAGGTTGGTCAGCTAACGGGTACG", -0.633],
  ["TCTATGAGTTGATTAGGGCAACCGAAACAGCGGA", -0.582],
  ["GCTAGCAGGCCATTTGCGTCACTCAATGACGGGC", -0.638],
  ["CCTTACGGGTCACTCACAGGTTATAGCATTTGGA", 0.401],
  ["AGAACGAGGGCACACTGAGTTGATAGCAGAGTAG", 0.314],
  ["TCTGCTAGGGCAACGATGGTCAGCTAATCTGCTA", -1.01],
  ["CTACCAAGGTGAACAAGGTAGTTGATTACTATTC", 0.814],
  ["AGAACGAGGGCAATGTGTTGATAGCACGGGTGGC", -0.0765],
  ["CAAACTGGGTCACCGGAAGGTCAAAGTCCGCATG", 0.892],
  ["GCTTACGGGTCAAAGGTTCTAGCATGAATAGAAT", 0.712],
  ["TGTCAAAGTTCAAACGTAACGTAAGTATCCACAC", 1.83],
  ["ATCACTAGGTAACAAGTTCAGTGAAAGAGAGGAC", 0.914],
  ["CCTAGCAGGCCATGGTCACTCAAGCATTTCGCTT", -1.39],
  ["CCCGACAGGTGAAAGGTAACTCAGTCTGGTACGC", -0.825],
  ["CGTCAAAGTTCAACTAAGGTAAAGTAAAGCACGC", 1.16],
  ["CCTTACGGGTCAAGGTTAGAGCACGGGTGGTACG", 0.266],
  ["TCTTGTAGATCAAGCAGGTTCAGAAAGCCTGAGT", -0.258],
  ["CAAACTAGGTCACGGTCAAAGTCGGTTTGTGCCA", 3.83],
  ["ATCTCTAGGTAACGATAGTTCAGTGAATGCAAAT", 1.62],
  ["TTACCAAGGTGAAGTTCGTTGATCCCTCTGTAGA", 0.131],
  ["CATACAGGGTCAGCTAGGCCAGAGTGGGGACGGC", 1.07]
]}
